System: SN12C renal
assay.summary: NCI-60 one-dose screen, 48 h (100 = growth as untreated, 0 = no growth, -100 = all killed)
test.context: 10 µM unless noted
This is part of a sample that, as a whole, favours compounds with a hit. Of some 83,000 tested, about 20% had one in any assay.
# growth listing for each entry below

compound | growth / %
C#Cc1nc(C2=C(C)C(OC(C)=O)/C(=N/OC(C)=O)C2)cs1 (stereo not drawn) | 86.6
CCOC(=O)c1csc(NC(=O)CSc2nc3sc4c(c3c(=O)n2-c2ccc(Cl)cc2)CCCC4)n1 | 94.9
COc1ccc(/C=C2\SC(=Nc3cc(C)[nH]n3)NC2=O)cc1 | 96

----------
Tested on: DU-145 prostate
assay.summary: NCI-60 one-dose screen, 48 h
test.context: 10 µM unless noted
Experimental: Cells are grown in 96 well plates and exposed to the test compound for 48 hours. Compounds are tested at a single concentration, which is 10^-5 M for most compounds. The reported endpoint is percent growth (GI% or GIPRCNT), where numbers from 0 - 100% represent growth inhibition, and numbers from -100% - 0 represent cell death. For example, a value of 40 represents 60% growth inhibition. A value of 0 means no net growth occurred over the course of the experiment. […]
The panel holds about 83,000 compounds, 20% with a hit somewhere; the sample as a whole holds those more often. The source made the active and inactive calls. The calls were made as follows: active = growth percent below 10; inactive = the rest.
Classes used: yes (1) = active, no (0) = inactive

compound | cat
COC(=O)C(C)NS(=O)(=O)/N=C1\NC(=O)NC1=C(Cl)Cl (stereo not given) | no (0)
COc1ccc(-c2csc(N/N=C/c3c(-c4ccc(S(C)(=O)=O)cc4)nc4ccccn34)n2)cc1 | no (0)
O=c1[nH]c2ccc(Cl)cc2cc1CSc1ccccc1Nc1nccc(-c2ccc(Cl)cc2)n1 | no (0)
C#Cc1nc(C2=C(C)C(OC(=O)CCC(=O)O)CC2)cs1 (stereo not given) | no (0)
COc1cccc(NC2=CC(=O)C(C)=C(C)C2=O)c1 | no (0)
COc1ccc2[nH]cc(-c3cc(N)n4nc(-c5c[nH]c6ccc(OC)cc56)cc4n3)c2c1 | yes (1)
C#Cc1nc(C2=C(C)C(OC(C)=O)/C(=N/OC(C)=O)C2)cs1 (stereo not given) | no (0)
CCN1C(=S)N(CC)C2C1NN=C1SC(c3ccccc3)=CC(=O)N12 (stereo not given) | no (0)
N#Cc1ccc(/C=N/NC(=O)c2[nH]c3ccc(Br)cc3c2-c2ccccc2)s1 | no (0)
C=CCSc1ccc2c(c1)C(N1CCNCC1)=Nc1ccccc1O2 | no (0)

----------
Tested on: SR leukemia
assay.summary: NCI-60 one-dose screen, 48 h
test.context: 10 µM unless noted
About 83,000 compounds went through this panel and 20% of them were active in at least one assay; those are over-represented in the sample as a whole. Activity calls are given as the source filed them. Rule for the calls: active = growth percent below 10; inactive = the rest.
Labels: 1 (active), 0 (inactive)

molecule | target.or.test.system | cat
C/C(=N\NC(N)=O)c1c(O)sc(=O)[nH]c1=O | SR leukemia | 0
N=C1CC(=O)NN1C(=O)CSc1nc2sc3c(c2c(=O)n1-c1ccc(Cl)cc1)CCCC3 | SR leukemia | 0
CCOC(=O)c1sc(N)c(C(=O)OCC)c1C | SR leukemia | 0
N#Cc1c(-c2ccc(F)cc2)nc2c(C#N)c(Nc3ccccc3)nn2c1N | SR leukemia | 0
COc1ccc(/C=N/NC(=O)c2[nH]c3ccc(Br)cc3c2-c2ccccc2)s1 | SR leukemia | 1
Clc1ccc2oc3c(OCCCn4ccnc4)c4ccccc4nc3c2c1 | SR leukemia | 0
NS(=O)(=O)c1cccc(Nc2nc(SCC(=O)c3ccc([N+](=O)[O-])cc3)nc3ccccc23)c1 | SR leukemia | 0
Cc1cc2nc3c4cc(Cl)ccc4n(CC(=O)NCCN(C)C)c3nc2cc1C | SR leukemia | 1
O=C(N/N=C/c1cccs1)c1[nH]c2ccc(Br)cc2c1-c1ccccc1 | SR leukemia | 1
O=C1Nc2ccccc2Oc2ccc(S(=O)(=O)CC3CO3)cc21 (stereo not given) | SR leukemia | 1
O=C1c2c(c3c4cccnc4[nH]c3c3ccc4ccccc4c23)C(=O)N1CCO | SR leukemia | 1
CN1CCc2c(sc3ncnc(N/N=C/c4ccc(Cl)c(Cl)c4)c23)C1 | SR leukemia | 1
CN1C(=S)N(C)C2C1NN=C1SC(c3ccccc3)=CC(=O)N12 (stereo not given) | SR leukemia | 0
N[C@@H](Cc1cn(-c2ccnc3ccccc23)nn1)C(=O)O | SR leukemia | 0
Cc1sc2nc(NCc3ccccc3Cl)[nH]c(=O)c2c1C | SR leukemia | 0
Cc1ccc(-c2nc(C(Cl)Cl)nc3cc(-c4ccccc4)nn23)cc1 | SR leukemia | 1
Cc1cc2nc3c4cc(Cl)ccc4n(CC(=S)NCCN(C)C)c3nc2cc1C | SR leukemia | 1
COc1cc(/C=C/C(=O)c2ccc(C)cc2)ccc1Oc1nc(NCCO)nc(N2CCOCC2)n1 | SR leukemia | 1
CC(C)(C)Nc1nc2c(OCCc3ccccc3)cccn2c1-c1cccc(F)c1 | SR leukemia | 1
O=C(O)CCCCCN1C(=O)/C(=C/c2ccc(O)c(O)c2)SC1=S | SR leukemia | 0
COC(=O)C1CCCN(S(=O)(=O)/N=C2\NC(=O)NC2=C(Cl)Cl)C1 (stereo not given) | SR leukemia | 0
C#Cc1nc(C2=C(C)/C(=N/OCc3ccccc3)CC2)cs1 | SR leukemia | 1
Nc1cc(-c2c[nH]c3ccc(Cl)cc23)nc2cc(-c3c[nH]c4ccc(Cl)cc34)nn12 | SR leukemia | 0
COc1ccc(/C=C2\SC(=Nc3cc(C)[nH]n3)NC2=O)cc1 | SR leukemia | 0
COc1ccc(Cc2nn(CC(=O)N/N=C/c3ccc(Cl)cc3)c(=O)c3c(C)noc23)cc1 | SR leukemia | 0
Cc1nc(-c2cc3ccccc3oc2=O)ccc1C(=O)/C=C/c1ccc(N2CCOCC2)cc1 | SR leukemia | 0
CCC/C=C/C=C/C(=O)N[C@@H](Cc1cc(F)cc(F)c1)C(=O)N[C@@H]1C(=O)N2CCC[C@H]2C(=O)N2CCCC[C@H]2C(=O)N[C@@H](C)C(=O)N2C[C@H](C)C[C@H]2C(=O)O[C@H]1C | SR leukemia | 0
O=C(NNc1nc2cc(F)ccc2n2c(CN3CC4(COC4)C3)ccc12)c1cnccn1 | SR leukemia | 1
COc1cccc(-c2nn(-c3ccccc3)cc2-c2ccnc(N3CCN(C(=O)c4ccccc4)CC3)c2)c1 | SR leukemia | 0
c1ccc2c(NCCCN3CCOCC3)c3oc4ccccc4c3nc2c1 | SR leukemia | 1
N/C(=N\c1nc2c(Br)cccc2s1)C(Br)Br | SR leukemia | 1
Cc1sc2c(c1C)c(=O)nc1c(-c3nc(-c4ccc(F)cc4)no3)n[nH]n12 | SR leukemia | 0
C/C(=C(/c1ccc(Cl)cc1)c1ccc(OCCN)cc1)c1ccc(C)cc1 | SR leukemia | 0
COc1cccc(NC2=CC(=O)C(C)=C(C)C2=O)c1 | SR leukemia | 0
CC(C)(O)c1cncc(-c2ccc3ncnc(N4CCc5cc(F)c(Cl)cc54)c3c2)c1 | SR leukemia | 0
O=[N+]([O-])c1ccc(O)c2ncccc12 | SR leukemia | 0
Cn1c(SCC(=O)Nc2ccc(-c3nc4ccc([N+](=O)[O-])cc4[nH]3)cc2)nc2ccccc2c1=O | SR leukemia | 0
COc1ccc([C@@H]2c3[nH]c4ccccc4c3CC3C(=O)N(C4CCN(Cc5c(F)cccc5F)CC4)CC(=O)N32)c(OC)c1 (stereo not given in full) | SR leukemia | 0
c1ccc2c(NCCCn3ccnc3)c3oc4ccccc4c3nc2c1 | SR leukemia | 1
O=C(CSc1nccc(=O)[nH]1)Nc1ccc(-c2nc3ccccc3[nH]2)cc1 | SR leukemia | 0

These measurements were taken from PubChem BioAssay (NCI).
